Recorded values, source patent US10118944B2.

- ASSAY_PROTOCOL: Fluorescence titration, VEPEP-5/SHM binding: FAM-guanosine
- CONDITION_PARAMETERS: cargo FAM-guanosine
PROPERTY_MEASURED: Kd (nM)
# output: bare number, implied unit nM

Query: Dear colleague, please send me the reported Kd for X1WWRLWWRLR [Short 6, X1 is beta-A or S; N-terminus acetylated, C-terminal cysteamide] when you can.
Reply: 60

* * *

- ASSAY_PROTOCOL: Fluorescence titration, VEPEP-5/SHM binding: doxorubicin
- CONDITION_PARAMETERS: cargo Doxorubicin
- Description: Fluorescence experiments were performed on a PTI spectrofluorimeter at 25° C. in a NaCl 154 mM buffer. Intrinsic Trp-fluorescence of VEPEP-5 was excited at 290 nm and emission spectrum was recorded between 310 and 400 nm, with a spectral band-pass of 2 and 8 nm for excitation and emission, respectively. FITC-fluorescence of labelled-peptide was excited at 492 nm and emission recorded between 500 and 580 nm. […]
PROPERTY_MEASURED: pKd
Units for pKd: none; it is -log10 of a concentration expressed in mol/L.

Query: Dear colleague, please send me the reported pKd for X1WFRLWFRLR [Short 7, X1 is beta-A or S; N-terminus acetylated, C-terminal cysteamide] when you can.
Reply: 7.15

* * *

Recorded pKd for the following substances
- ASSAY_PROTOCOL: Fluorescence titration, VEPEP-5/SHM binding: porphyrin
- CONDITION_PARAMETERS: cargo porphyrin
Units for pKd: none; it is -log10 of a concentration expressed in mol/L.

In the examples that follow, each entry is paired with its recorded pKd.
[
  {
    "SUBSTANCE": "X1WWRLWWRLR [Short 6, X1 is beta-A or S; N-terminus acetylated, C-terminal cysteamide]",
    "PROPERTY_MEASURED": "pKd",
    "RECORDED_NUMBER": 6.40
  },
  {
    "SUBSTANCE": "X1WFRLWFRLR [Short 7, X1 is beta-A or S; N-terminus acetylated, C-terminal cysteamide]",
    "PROPERTY_MEASURED": "pKd",
    "RECORDED_NUMBER": 6.30
  }
]

// switching to the query substance
Query: Dear colleague, please send me the reported pKd for X1RSWFRLWFR [Short 11, X1 is beta-A or S; N-terminus acetylated, C-terminal cysteamide] when you can.
Reply: 6.15
